Target: T1, human PILRB, ectopically expressed on 293 cells (human, UniProt Q9UKJ0 20-227)
T1 construct: also called hB
T1 sequence (Q9UKJ0 20-227): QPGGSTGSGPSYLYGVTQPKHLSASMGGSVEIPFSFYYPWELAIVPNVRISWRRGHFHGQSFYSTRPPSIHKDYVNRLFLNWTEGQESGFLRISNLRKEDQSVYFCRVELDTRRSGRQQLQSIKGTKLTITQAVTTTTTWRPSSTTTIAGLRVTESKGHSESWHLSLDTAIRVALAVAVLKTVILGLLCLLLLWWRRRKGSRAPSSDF
Assay: flow cytometry, 293 cells expressing target
Examples of binders with documented EC50 follow.
Give the quantity in µg/mL, number only.

>>> measured_result("E16 (antibody, V domains shown, B-cell cloning campaign (mice)) VH: QVQLKESGPGLVAPSQSLSITCTVSGFSLSGYGVNWVRHLPGKGLEWLGMIWGDGHTDYNSALKSRLSISKDNSKSQVFLKMNSLQTDDTARYYCARDPRFYYGSGPYWYFDVWGAGTTVTVSS VL: DIVMTQSQKFMSTSVGDRVNITCKASQNVGTAVAWYQQKPGQSPKLLIYSASNRYTGVPDRFTGSGSGTDFTLTISNMQSEDLADYFCQQYSSYPLTFAVGTKLELK")
3.1

What EC50 value was documented for this binder, D7 (antibody, V domains shown, second hybridoma campaign) VH: QVQLKESGPGLVAPSQSLSITCTVSGFSLTSYAISWVRQPPGKGLEWLGIIWTGGDTNYNSGLKSRLSITKDNSKSQVFLKMNSLQTDDTSRYYCARNSLFYGITPYYFDYWGQGTTLTVSS VL: DIVLTQSPATLSVTPGDSVSLSCRASQSIRNDLHWYQQKSHESPRLLIKYASQSISGIPSRFSGSGSGTDFTLTINVLETEDFGMYFCQQSNGWPLTFGAGTKLELK ? 21.2

Hey, just so you know, these numbers are from patent US20240425587A1.
